Provide the recorded IC50 for the entries that follow.
# target-or-test-system: various mutants of kinase EGFR (BaF3 cell lines stably transfected with kinase) (Homo sapiens)
# Construct: other: BaF3 cells stably transfected with EGFR Δ19Del; MTS, 48 h; other: BaF3 cell line stably transfected with EGFR Δ19Del
# protocol-details: Growth inhibitory activity of compounds on BaF3 cell lines stably transfected with kinase (MTS, 48 h)
# Format: cell-based
# condition-parameters: BaF3 cells stably transfected with EGFR Δ19Del, read-out: IC50, growth inhibition, Δ19Del

CCc1cc(Nc2ncc(Cl)c(Nc3ccc4nccnc4c3N(C)S(=O)(=O)C3CC3)n2)c(OC)cc1N1CCC(N(C)C)C1 (stereo not drawn)    0.05 to 0.5 µM
COc1cc(N2CCC(N(C)C)C2)ccc1Nc1ncc(Br)c(Nc2ccc3nccnc3c2N(C)S(C)(=O)=O)n1 (stereo not drawn)    0.05 to 0.5 µM

Query CCS(=O)(=O)N(C)c1c(Nc2nc(Nc3cc(C)c(N4CCC(N5CCN(C)CC5)CC4)cc3OC)ncc2Cl)ccc2nccnc12 yields IC50 of ≤ 0.05 µM

----------
# target-or-test-system: various mutants of kinase EGFR (BaF3 cell lines stably transfected with kinase) (Homo sapiens, UniProt P00533, L858R)
# Construct: expressed in transfected cells; host or cells: BaF3
# Sequence (P00533 25-1210 L858R): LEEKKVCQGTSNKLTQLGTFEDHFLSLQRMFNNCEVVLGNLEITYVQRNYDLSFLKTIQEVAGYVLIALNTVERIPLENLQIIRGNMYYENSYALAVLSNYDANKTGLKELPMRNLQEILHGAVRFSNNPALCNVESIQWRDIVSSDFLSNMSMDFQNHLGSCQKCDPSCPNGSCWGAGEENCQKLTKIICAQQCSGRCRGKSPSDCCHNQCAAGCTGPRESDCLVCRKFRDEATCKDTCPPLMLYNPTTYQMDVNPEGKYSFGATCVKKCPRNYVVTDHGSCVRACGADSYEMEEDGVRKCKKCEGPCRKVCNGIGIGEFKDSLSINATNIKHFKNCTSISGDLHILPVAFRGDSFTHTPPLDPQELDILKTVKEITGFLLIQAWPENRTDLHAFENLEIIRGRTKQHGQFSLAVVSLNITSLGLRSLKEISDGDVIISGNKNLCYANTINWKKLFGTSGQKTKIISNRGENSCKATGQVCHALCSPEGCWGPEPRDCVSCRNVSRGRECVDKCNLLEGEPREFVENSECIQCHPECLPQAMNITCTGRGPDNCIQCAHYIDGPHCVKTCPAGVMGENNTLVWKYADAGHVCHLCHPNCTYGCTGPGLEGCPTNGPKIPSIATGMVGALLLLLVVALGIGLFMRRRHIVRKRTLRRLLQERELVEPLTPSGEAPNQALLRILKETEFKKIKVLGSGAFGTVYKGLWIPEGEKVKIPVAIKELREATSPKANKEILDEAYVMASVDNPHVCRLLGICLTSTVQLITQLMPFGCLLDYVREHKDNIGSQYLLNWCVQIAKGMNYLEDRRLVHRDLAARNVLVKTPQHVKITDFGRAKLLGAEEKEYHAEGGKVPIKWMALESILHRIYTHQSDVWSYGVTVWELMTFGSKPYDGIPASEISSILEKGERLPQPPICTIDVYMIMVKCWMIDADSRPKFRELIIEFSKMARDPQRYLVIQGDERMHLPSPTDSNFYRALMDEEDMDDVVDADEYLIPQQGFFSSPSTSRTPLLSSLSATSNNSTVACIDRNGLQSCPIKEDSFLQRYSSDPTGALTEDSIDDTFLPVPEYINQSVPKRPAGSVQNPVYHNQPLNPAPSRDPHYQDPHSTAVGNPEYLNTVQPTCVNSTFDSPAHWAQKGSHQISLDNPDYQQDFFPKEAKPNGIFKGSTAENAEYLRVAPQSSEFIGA
# protocol-details: Growth inhibitory activity of compounds on BaF3 cell lines stably transfected with kinase (MTS, 48 h)
# Format: cell-based
# condition-parameters: BaF3 cells stably transfected with EGFR L858R, read-out: IC50, growth inhibition, L858R
pIC50: −log10 of the molar value.
endpoint-label: pIC50

Look up pIC50 for the entries below, preserving their order.
1. CCc1cc(Nc2ncc(Cl)c(Nc3ccc4nccnc4c3N(CC)S(C)(=O)=O)n2)c(OC)cc1N1CCC(N2CCN(C)CC2)CC1
2. COc1cc(N2CCC(N3CCN(C)CC3)CC2)c(C)cc1Nc1ncc([N+](=O)[O-])c(Nc2ccc3nccnc3c2N(C)S(C)(=O)=O)n1
3. CCN(c1c(Nc2nc(Nc3cc(C)c(N4CCC(N(C)C)C4)cc3OC)ncc2Br)ccc2nccnc12)S(C)(=O)=O (stereo not drawn)
4. CCc1cc(Nc2ncc(Cl)c(Nc3ccc4nccnc4c3N(C)S(C)(=O)=O)n2)c(OC(F)(F)F)cc1N1CCC(N2CCN(C)CC2)CC1
5. CCc1cc(Nc2ncc(Br)c(Nc3ccc4nccnc4c3N(CC)S(C)(=O)=O)n2)c(OC)cc1N1CCC(N(C)C)CC1

1: ≥ 7.30; 2: ≥ 7.30; 3: 6.30 to 7.30; 4: 6.30 to 7.30; 5: ≥ 7.30

pIC50 recorded for this compound, COc1cc(N2CCC(N3CCN(C)CC3)CC2)c(CC2CC2)cc1Nc1ncc(Br)c(Nc2ccc3nccnc3c2N(C)S(C)(=O)=O)n1 , is ≥ 7.30

----------
# target-or-test-system: various mutants of kinase EGFR (BaF3 cell lines stably transfected with kinase) (Homo sapiens, UniProt P00533)
# Construct: other: BaF3 cells stably transfected with EGFR Δ19Del; MTS, 48 h; other: BaF3 cell line stably transfected with EGFR Δ19Del
# Sequence (P00533 with tags, fused parts or gaps DEL746-750): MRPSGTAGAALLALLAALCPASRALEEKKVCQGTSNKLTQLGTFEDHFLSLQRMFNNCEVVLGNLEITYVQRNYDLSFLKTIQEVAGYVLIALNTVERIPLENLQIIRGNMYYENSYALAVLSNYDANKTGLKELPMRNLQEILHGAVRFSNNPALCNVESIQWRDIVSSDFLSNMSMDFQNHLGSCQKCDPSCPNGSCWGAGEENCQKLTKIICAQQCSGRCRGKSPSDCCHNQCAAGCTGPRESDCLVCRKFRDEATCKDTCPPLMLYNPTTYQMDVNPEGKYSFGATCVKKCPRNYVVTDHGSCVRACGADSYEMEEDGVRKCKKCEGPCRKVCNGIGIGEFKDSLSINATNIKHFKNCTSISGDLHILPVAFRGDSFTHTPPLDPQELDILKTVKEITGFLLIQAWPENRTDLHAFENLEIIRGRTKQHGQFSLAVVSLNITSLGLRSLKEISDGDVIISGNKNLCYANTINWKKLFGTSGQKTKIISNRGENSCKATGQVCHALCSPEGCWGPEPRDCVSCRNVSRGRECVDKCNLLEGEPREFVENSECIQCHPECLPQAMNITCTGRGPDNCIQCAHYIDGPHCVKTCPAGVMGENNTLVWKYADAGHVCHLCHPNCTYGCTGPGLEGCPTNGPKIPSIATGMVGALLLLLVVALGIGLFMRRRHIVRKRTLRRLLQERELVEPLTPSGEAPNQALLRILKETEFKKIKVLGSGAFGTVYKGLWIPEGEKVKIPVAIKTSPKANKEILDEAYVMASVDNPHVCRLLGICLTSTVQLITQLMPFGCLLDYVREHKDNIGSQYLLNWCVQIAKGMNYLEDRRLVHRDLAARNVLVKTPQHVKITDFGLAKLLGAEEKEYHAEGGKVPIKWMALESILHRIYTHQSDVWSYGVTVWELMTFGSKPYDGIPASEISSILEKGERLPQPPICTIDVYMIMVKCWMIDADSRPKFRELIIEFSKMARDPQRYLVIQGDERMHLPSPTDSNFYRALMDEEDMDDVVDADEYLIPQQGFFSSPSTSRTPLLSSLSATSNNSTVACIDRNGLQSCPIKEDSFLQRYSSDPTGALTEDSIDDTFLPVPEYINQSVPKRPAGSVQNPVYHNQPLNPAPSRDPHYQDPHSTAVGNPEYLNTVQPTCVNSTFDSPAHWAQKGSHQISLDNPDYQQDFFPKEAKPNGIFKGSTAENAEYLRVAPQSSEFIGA
# protocol-details: Growth inhibitory activity of compounds on BaF3 cell lines stably transfected with kinase (MTS, 48 h)
# Assay type: cell-based
# condition-parameters: BaF3 cell line stably transfected with EGFR Δ19Del, read-out: Δ19Del growth inhibitory activity IC50
pIC50: −log10 of the molar value.
Provide the recorded pIC50 for the entries that follow.

Example results:
CCc1cc(Nc2nc(Nc3ccc4nccnc4c3N(C)S(C)(=O)=O)c3sccc3n2)c(OC(F)(F)F)cc1N1CCC(N2CCN(C)CC2)CC1    5.60 to 6.30
C=Cc1cc(Nc2nc(Nc3ccc4nccnc4c3N(C)S(C)(=O)=O)c3sccc3n2)c(OC(F)(F)F)cc1N1CCC(N2CCN(C)CC2)CC1    5.60 to 6.30
CCc1cc(Nc2ncc(Cl)c(Nc3ccc4nccnc4c3N(C)S(C)(=O)=O)n2)c(OC)cc1C(=O)N1CCC(N2CCN(C)CC2)CC1    5.60 to 6.30
COc1ccc(N2CCNCC2)cc1Nc1ncc(Br)c(Nc2ccc3nccnc3c2N(C)S(C)(=O)=O)n1    6.30 to 7.30
CCOc1cnc(Nc2cc(C)c(N3CCC(N4CCN(C)CC4)CC3)cc2OC)nc1Nc1ccc2nccnc2c1N(C)S(C)(=O)=O    6.30 to 7.30

Entry under test: COc1nc(N2CCC(N3CCN(C)CC3)CC2)c(C)cc1Nc1ncc(Br)c(Nc2ccc3nccnc3c2N(C2CC2)S(C)(=O)=O)n1 . Its pIC50 was 5.60 to 6.30

----------
Give measured IC50 for each item. Keep answers brief.
# target-or-test-system: various mutants of kinase EGFR (BaF3 cell lines stably transfected with kinase) (Homo sapiens, UniProt P00533, C797S/L858R/T790M)
# Construct: expressed in transfected cells; host or cells: BaF3
# Sequence (P00533 25-1210 T790M/C797S/L858R): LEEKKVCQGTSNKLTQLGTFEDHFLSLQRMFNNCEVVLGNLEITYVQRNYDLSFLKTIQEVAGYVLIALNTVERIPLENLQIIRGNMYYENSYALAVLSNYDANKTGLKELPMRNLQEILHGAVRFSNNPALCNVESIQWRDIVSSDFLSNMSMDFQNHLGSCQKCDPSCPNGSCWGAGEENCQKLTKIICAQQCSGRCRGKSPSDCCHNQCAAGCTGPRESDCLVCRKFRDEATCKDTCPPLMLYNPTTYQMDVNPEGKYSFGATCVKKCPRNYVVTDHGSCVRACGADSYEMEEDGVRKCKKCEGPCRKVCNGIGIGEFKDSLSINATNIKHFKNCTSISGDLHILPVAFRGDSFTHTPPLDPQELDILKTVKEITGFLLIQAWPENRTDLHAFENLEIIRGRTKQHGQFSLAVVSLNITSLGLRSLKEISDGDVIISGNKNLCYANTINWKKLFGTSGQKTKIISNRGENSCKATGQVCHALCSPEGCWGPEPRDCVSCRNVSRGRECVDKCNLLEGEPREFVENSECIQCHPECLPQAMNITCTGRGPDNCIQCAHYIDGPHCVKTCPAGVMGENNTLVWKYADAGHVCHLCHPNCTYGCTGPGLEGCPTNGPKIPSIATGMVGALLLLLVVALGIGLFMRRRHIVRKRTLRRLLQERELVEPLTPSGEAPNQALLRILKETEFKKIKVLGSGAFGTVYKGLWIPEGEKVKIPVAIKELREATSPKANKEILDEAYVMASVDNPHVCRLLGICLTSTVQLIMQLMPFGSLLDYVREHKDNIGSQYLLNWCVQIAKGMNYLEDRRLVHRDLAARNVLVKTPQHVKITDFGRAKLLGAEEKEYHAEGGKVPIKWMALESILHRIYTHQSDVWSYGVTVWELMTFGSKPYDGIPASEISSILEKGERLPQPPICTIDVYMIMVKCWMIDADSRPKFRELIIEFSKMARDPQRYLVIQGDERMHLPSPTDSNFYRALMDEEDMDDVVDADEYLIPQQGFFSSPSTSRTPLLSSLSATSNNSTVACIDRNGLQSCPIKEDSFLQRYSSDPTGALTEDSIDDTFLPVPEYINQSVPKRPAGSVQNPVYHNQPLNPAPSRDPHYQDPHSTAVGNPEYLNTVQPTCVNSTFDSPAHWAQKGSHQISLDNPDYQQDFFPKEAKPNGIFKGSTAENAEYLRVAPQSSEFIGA
# protocol-details: Growth inhibitory activity of compounds on BaF3 cell lines stably transfected with kinase (MTS, 48 h)
# Type: cell-based
# condition-parameters: BaF3 cells stably transfected with EGFR L858R/T790M/C797S, read-out: IC50, growth inhibition, L858R/T790M/C797S

CCc1cc(Nc2ncc(Br)c(Nc3ccc4nccnc4c3N(C3CC3)S(C)(=O)=O)n2)c(OC)cc1N1CCC(N(C)C)CC1    ≤ 50 nM
COc1cc(N2CCC(N3CCN(C)CC3)CC2)c(C2CC2)cc1Nc1ncc(C2CC2)c(Nc2ccc3nccnc3c2N(C)S(C)(=O)=O)n1    50 to 500 nM
CCc1cc(Nc2ncc(Cl)c(Nc3ccc4nccnc4c3N(C)S(C)(=O)=O)n2)c(OC)cc1N1CCC(N(C)C)C1 (centres unmarked)    ≤ 50 nM

Fill in IC50 for each of the 8 compounds listed.
1. CCc1cc(Nc2ncc(Br)c(Nc3ccc4nccnc4c3N(C)S(C)(=O)=O)n2)ccc1N1CCC(N2CCN(C)CC2)CC1
2. CCc1cc(Nc2ncc(Cl)c(Nc3ccc4nccnc4c3N(C3CC3)S(C)(=O)=O)n2)c(OC)nc1N1CCC(N2CCN(C)CC2)CC1
3. CCc1cc(Nc2ncc(Br)c(Nc3ccc4nccnc4c3N(C)S(C)(=O)=O)n2)c(OC)cc1N1CCC(N(C)C)C1 (centres unmarked)
4. C=Cc1cc(Nc2ncc(F)c(Nc3ccc4nccnc4c3N(C)S(C)(=O)=O)n2)c(OC(F)(F)F)cc1N1CCC(N2CCN(C)CC2)CC1
5. CCc1cc(Nc2ncc(C)c(Nc3ccc4nccnc4c3N(C)S(C)(=O)=O)n2)c(OC)cc1N1CCC(N(C)C)CC1
6. CN1CCc2cc(F)c(Nc3ncc(Br)c(Nc4ccc5nccnc5c4N(C)S(C)(=O)=O)n3)cc2C1
7. COc1cc(N2CCC(N(C)C)C2)c(C)cc1Nc1ncc(F)c(Nc2ccc3nccnc3c2N(C)S(C)(=O)=O)n1 (centres unmarked)
8. COc1cc(N2CCC(N(C)C)CC2)c(C)cc1Nc1ncc(Cl)c(Nc2ccc3nccnc3c2N(C)S(=O)(=O)C(F)(F)F)n1

≤ 50 nM
50 to 500 nM
≤ 50 nM
50 to 500 nM
≤ 50 nM
≤ 50 nM
50 to 500 nM
50 to 500 nM

Fill in IC50 for each of the 3 compounds listed.
1. CCc1cc(Nc2ncc(Cl)c(Nc3ccc4nccnc4c3N(C)S(=O)(=O)CC)n2)c(OC)nc1N1CCC(N2CCN(C)CC2)CC1
2. COc1cc(N2CCC(N3CCN(C)CC3)CC2)c(C)cc1Nc1ncc(F)c(Nc2ccc3nccnc3c2N(C)S(=O)(=O)C2CC2)n1
3. CCc1cc(Nc2ncc(Cl)c(Nc3ccc4nccnc4c3N(C)S(=O)(=O)C3CC3)n2)c(OC)cc1N1CCC(N(C)C)C1 (centres unmarked)

1: ≤ 50 nM; 2: 50 to 500 nM; 3: 50 to 500 nM

----------
# target-or-test-system: various mutants of kinase EGFR (BaF3 cell lines stably transfected with kinase) (Homo sapiens, UniProt P00533, L858R)
# Construct: expressed in transfected cells; host or cells: BaF3
# protocol-details: Growth inhibitory activity of compounds on BaF3 cell lines stably transfected with kinase (MTS, 48 h)
# Type: cell-based
# condition-parameters: BaF3 cell line stably transfected with EGFR L858R, read-out: L858R growth inhibitory activity IC50
pIC50: −log10 of the molar value.
endpoint-label: pIC50

Here are 5 compounds together with their reported answers.
CCn1ccc(Nc2ncc(Br)c(Nc3ccc4nccnc4c3N(C)S(C)(=O)=O)n2)n1    6.30 to 7.30
CN1CCN(C2CCN(c3ccc(Nc4ncc(Br)c(Nc5ccc6nccnc6c5N(C)S(C)(=O)=O)n4)c(F)c3F)CC2)CC1    ≥ 7.30
COc1cc(N2CCC(N3CCN(C)CC3)CC2)ccc1Nc1ncc(C)c(Nc2ccc3nccnc3c2N(C)S(C)(=O)=O)n1    6.30 to 7.30
CN1CCN(C2CCN(c3ccc(Nc4nc(Nc5ccc6nccnc6c5N(C)S(C)(=O)=O)c5occc5n4)c(OC(F)(F)F)c3)CC2)CC1    5.60 to 6.30
COc1cc(N2CCC(N3CCN(C)CC3)CC2)c(C)cc1Nc1ncc(C(C)C)c(Nc2ccc3nccnc3c2N(C)S(C)(=O)=O)n1    6.30 to 7.30

Now let's try a different one.
pIC50 for CCc1cc(Nc2ncc(C3CC3)c(Nc3ccc4nccnc4c3N(C)S(C)(=O)=O)n2)c(OC)cc1C(=O)N1CCC(N2CCN(C)CC2)CC1 is 6.30 to 7.30
